# experimental-target: FKBP51 (Homo sapiens, UniProt Q13451)
# Sequence (Q13451 42-130 limits assumed): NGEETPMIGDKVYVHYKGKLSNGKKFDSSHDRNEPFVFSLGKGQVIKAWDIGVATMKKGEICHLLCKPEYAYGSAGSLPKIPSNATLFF
# Ki values compiled below

Guide cases for Ki, answers given:
INSERT INTO results (compound, reported_metric, reading) VALUES
  ('COCCN1C[C@H](C(N)=O)[C@H]2CCC[C@@H](C1=O)N2S(=O)(=O)c1cc(Cl)cc(Cl)c1', 'Ki', '100 to 500 nM'),
  ('C#CCN1C[C@H](COC)[C@H]2CCC[C@@H](C1=O)N2S(=O)(=O)c1cc(Br)cc(C(N)=O)c1', 'Ki', '100 to 500 nM'),
  ('C#CCN1C[C@H](COC)[C@H]2CCC[C@@H](C1=O)N2S(=O)(=O)c1cccnc1', 'Ki', '500 to 1000 nM'),
  ('C=CC1CN(Cc2ccccn2)C(=O)C2CCCC1N2S(=O)(=O)c1cc(Br)cc(Br)c1 (stereo in doubt)', 'Ki', '≤ 100 nM'),
  ('COC[C@H]1CN(Cc2cnn[nH]2)C(=O)[C@@H]2CCC[C@H]1N2S(=O)(=O)c1nc2ccccc2[nH]1', 'Ki', '≤ 100 nM');

Would you kindly share the measured Ki for C=C[C@@H]1CN(Cc2ccccn2)C(=O)[C@@H]2CCC[C@H]1N2S(=O)(=O)c1cc(Cl)cc(C(N)=O)c1 ? 100 to 500 nM

Now the same for CNC[C@H]1CN(CCOC)C(=O)[C@@H]2CCC[C@H]1N2S(=O)(=O)c1cc(Cl)cc(Cl)c1 100 to 500 nM
